Each recorded value in this set is attributed to patent EP4635500A1.

System: Enterobacterales
Assay: MIC, broth microdilution, CDC/FDA Antibiotic Resistance Isolate Bank (Example 7, Tables 8, 11, 12)
Format: cell-based
Settings: Klebsiella pneumoniae, KUB No. 5772, AR Bank # 376; read-out: MIC
result-type: MIC (µg/mL)
Number only, in µg/mL; omit the unit.

C[C@H]1COc2c(N3CCN(C)CC3)c(F)cc3c(=O)c(C(=O)O)cn1c23	16

Query string: # MIC lookup, item "NCC[C@H](O)C(=O)N[C@@H]1C[C@H](N)[C@@H](O[C@H]2O[C@H](CN)[C@@H](O)[C@H](O)[C@H]2O)[C@H](O)[C@H]1O[C@H]1O[C@H](CO)[C@@H](O)[C@H](N)[C@H]1O"
Result string: 2

Query string: Moving on to "CC(C)(O/N=C(\C(=O)N[C@@H]1C(=O)N2C(C(=O)[O-])=C(C[N+]3(CCNC(=O)c4ccc(O)c(O)c4Cl)CCCC3)CS[C@H]12)c1csc(N)n1)C(=O)O"
Result string: 1

Query string: Same again, this time with "CN(C)c1cc(NC(=O)CNC(C)(C)C)c(O)c2c1C[C@H]1C[C@H]3[C@H](N(C)C)C(O)=C(C(N)=O)C(=O)[C@@]3(O)C(O)=C1C2=O"
Result string: 1

====

Reported MIC is given for each of the following compounds.
Test system: P. aeruginosa
Experiment: MIC, broth microdilution, CDC/FDA Antibiotic Resistance Isolate Bank (Example 7, Tables 10, 15)
Assay type: cell-based
Details: Pseudomonas aeruginosa, P. aeruginosa KUB No. 5685, AR Bank # 252; read-out: MIC
# unit: µg/mL | format: bare number

Please review the following examples before continuing.
C[C@H]1COc2c(N3CCN(C)CC3)c(F)cc3c(=O)c(C(=O)O)cn1c23	16
CN(C)c1cc(NC(=O)CNC(C)(C)C)c(O)c2c1C[C@H]1C[C@H]3[C@H](N(C)C)C(O)=C(C(N)=O)C(=O)[C@@]3(O)C(O)=C1C2=O	0.5
C[C@H]1[C@H](NC(=O)/C(=N\OC(C)(C)C(=O)O)c2csc(N)n2)C(=O)N1S(=O)(=O)O	32
CO/N=C(\C(=O)N[C@@H]1C(=O)N2C(C(=O)[O-])=C(C[n+]3ccn4ncccc43)CS[C@H]12)c1nsc(N)n1	16
CC(C)(O/N=C(\C(=O)N[C@@H]1C(=O)N2C(C(=O)[O-])=C(C[N+]3(CCNC(=O)c4ccc(O)c(O)c4Cl)CCCC3)CS[C@H]12)c1csc(N)n1)C(=O)O	2

Continue with the next compound.
Query string: // map "NCC[C@H](O)C(=O)N[C@@H]1C[C@H](N)[C@@H](O[C@H]2O[C@H](CN)[C@@H](O)[C@H](O)[C@H]2O)[C@H](O)[C@H]1O[C@H]1O[C@H](CO)[C@@H](O)[C@H](N)[C@H]1O" to recorded MIC (system: P. aeruginosa)
Result string: 0.5

====

Below: a set of entries, each annotated with reported MIC.
Tested on: P. aeruginosa
Assay: MIC, broth microdilution, CDC/FDA Antibiotic Resistance Isolate Bank (Example 7, Tables 10, 15)
Type: cell-based
Details: Pseudomonas aeruginosa, P. aeruginosa KUB No. 5680, AR Bank # 247; read-out: MIC

NCC[C@H](O)C(=O)N[C@@H]1C[C@H](N)[C@@H](O[C@H]2O[C@H](CN)[C@@H](O)[C@H](O)[C@H]2O)[C@H](O)[C@H]1O[C@H]1O[C@H](CO)[C@@H](O)[C@H](N)[C@H]1O	4 µg/mL

Query string: Which MIC value belongs to "C[C@H]1COc2c(N3CCN(C)CC3)c(F)cc3c(=O)c(C(=O)O)cn1c23" ?
Result string: 1 µg/mL

Query string: What do you get for "CO/N=C(\C(=O)N[C@@H]1C(=O)N2C(C(=O)[O-])=C(C[n+]3ccn4ncccc43)CS[C@H]12)c1nsc(N)n1" ?
Result string: 4 µg/mL

Query string: Another: "C[C@H]1[C@H](NC(=O)/C(=N\OC(C)(C)C(=O)O)c2csc(N)n2)C(=O)N1S(=O)(=O)O"
Result string: 4 µg/mL

Query string: "CC(C)(O/N=C(\C(=O)N[C@@H]1C(=O)N2C(C(=O)[O-])=C(C[N+]3(CCNC(=O)c4ccc(O)c(O)c4Cl)CCCC3)CS[C@H]12)c1csc(N)n1)C(=O)O" ?
Result string: 0.12 µg/mL

Query string: Next: "CN(C)c1cc(NC(=O)CNC(C)(C)C)c(O)c2c1C[C@H]1C[C@H]3[C@H](N(C)C)C(O)=C(C(N)=O)C(=O)[C@@]3(O)C(O)=C1C2=O"
Result string: 4 µg/mL

====

This listing pairs compounds with measured MIC.
Tested on: P. aeruginosa
Test: MIC, broth microdilution, CDC/FDA Antibiotic Resistance Isolate Bank (Example 7, Tables 10, 15)
Assay type: cell-based
Conditions: Pseudomonas aeruginosa, P. aeruginosa KUB No. 5673, AR Bank # 240; read-out: MIC
Only the number, expressed in µg/mL, is required.

Some solved entries appear below for comparison.
CC(C)(O/N=C(\C(=O)N[C@@H]1C(=O)N2C(C(=O)[O-])=C(C[N+]3(CCNC(=O)c4ccc(O)c(O)c4Cl)CCCC3)CS[C@H]12)c1csc(N)n1)C(=O)O	1
C[C@H]1[C@H](NC(=O)/C(=N\OC(C)(C)C(=O)O)c2csc(N)n2)C(=O)N1S(=O)(=O)O	32
CN(C)c1cc(NC(=O)CNC(C)(C)C)c(O)c2c1C[C@H]1C[C@H]3[C@H](N(C)C)C(O)=C(C(N)=O)C(=O)[C@@]3(O)C(O)=C1C2=O	8

Here's the next entry for you.
Query string: What does the data say about its MIC? Entry: "NCC[C@H](O)C(=O)N[C@@H]1C[C@H](N)[C@@H](O[C@H]2O[C@H](CN)[C@@H](O)[C@H](O)[C@H]2O)[C@H](O)[C@H]1O[C@H]1O[C@H](CO)[C@@H](O)[C@H](N)[C@H]1O"
Result string: 64

====

We begin with a simple list: items and their reported MIC.
Tested on: P. aeruginosa
Assay: MIC, broth microdilution, CDC/FDA Antibiotic Resistance Isolate Bank (Example 7, Tables 10, 15)
Type: cell-based
Conditions: Pseudomonas aeruginosa, P. aeruginosa KUB No. 5674, AR Bank # 241; read-out: MIC
Use µg/mL as the unit, but write only the number.

Look over these answered cases.
C[C@H]1[C@H](NC(=O)/C(=N\OC(C)(C)C(=O)O)c2csc(N)n2)C(=O)N1S(=O)(=O)O [Aztreonam, aztreonam]	32
NCC[C@H](O)C(=O)N[C@@H]1C[C@H](N)[C@@H](O[C@H]2O[C@H](CN)[C@@H](O)[C@H](O)[C@H]2O)[C@H](O)[C@H]1O[C@H]1O[C@H](CO)[C@@H](O)[C@H](N)[C@H]1O [Amikacin, amikacin]	32

Query string: Quick one: MIC of CN(C)c1cc(NC(=O)CNC(C)(C)C)c(O)c2c1C[C@H]1C[C@H]3[C@H](N(C)C)C(O)=C(C(N)=O)C(=O)[C@@]3(O)C(O)=C1C2=O [Tigecycline, tigecycline] ?
Result string: 4

Query string: What about this compound? CC(C)(O/N=C(\C(=O)N[C@@H]1C(=O)N2C(C(=O)[O-])=C(C[N+]3(CCNC(=O)c4ccc(O)c(O)c4Cl)CCCC3)CS[C@H]12)c1csc(N)n1)C(=O)O [Cefiderocol, cefiderocol]
Result string: 0.25

Query string: Please do the same for C[C@H]1COc2c(N3CCN(C)CC3)c(F)cc3c(=O)c(C(=O)O)cn1c23 [Levofloxacin, levofloxacin] as well.
Result string: 32

====

Tested on: Enterobacterales
Test: MIC, broth microdilution, CDC/FDA Antibiotic Resistance Isolate Bank (Example 7, Tables 8, 11, 12)
Format: cell-based
Settings: Klebsiella pneumoniae, KUB No. 5642, AR Bank # 145; read-out: MIC
result-type: MIC

Examples with their reported MIC follow.
CO/N=C(\C(=O)N[C@@H]1C(=O)N2C(C(=O)[O-])=C(C[n+]3ccn4ncccc43)CS[C@H]12)c1nsc(N)n1	64 µg/mL
NCC[C@H](O)C(=O)N[C@@H]1C[C@H](N)[C@@H](O[C@H]2O[C@H](CN)[C@@H](O)[C@H](O)[C@H]2O)[C@H](O)[C@H]1O[C@H]1O[C@H](CO)[C@@H](O)[C@H](N)[C@H]1O	16 µg/mL
C[C@H]1COc2c(N3CCN(C)CC3)c(F)cc3c(=O)c(C(=O)O)cn1c23	32 µg/mL

We next turn to a different compound, shown below.
Query string: Which MIC value belongs to "CC(C)(O/N=C(\C(=O)N[C@@H]1C(=O)N2C(C(=O)[O-])=C(C[N+]3(CCNC(=O)c4ccc(O)c(O)c4Cl)CCCC3)CS[C@H]12)c1csc(N)n1)C(=O)O" ?
Result string: 0.25 µg/mL
